test system: MEF-IGF1R cells; assay: Proliferation/viability of MEF-IGF1R (Thymidine [14C] incorporation); type: cell-based; details: rhIGF1 100 ng/mL, incubation 72 hours, read-out: Test C IC50
pIC50: −log10 of the molar value.
READOUT: pIC50

COMPOUND: CN(C)CCCNC(=O)Nc1cc(CN2C(=O)N(c3ccc(SC(F)(F)F)cc3)C(=O)C2(C)C)ccn1 [Example 39]
ASSAYED TARGET: MEF-IGF1R cells
VAL: < 7.00
--
COMPOUND: CC1(C)C(=O)N(c2ccc(SC(F)(F)F)cc2)C(=O)N1Cc1ccnc(NC(=O)NC2CCC2)c1 [Example 23]
ASSAYED TARGET: MEF-IGF1R cells
VAL: 7.00 to 8.00
--
COMPOUND: CCCCN(C)C(=O)Nc1cc(CN2C(=O)N(c3ccc(SC(F)(F)F)cc3)C(=O)C2(C)C)ccn1 [Example 36]
ASSAYED TARGET: MEF-IGF1R cells
VAL: 7.00 to 8.00

// each compound listed below needs its pIC50
1. CCCN(C)C(=O)Nc1cc(CN2C(=O)N(c3ccc(SC(F)(F)F)cc3)C(=O)C2(C)C)ccn1 [Example 35]
2. CN(C)CCCCNC(=O)Nc1cc(CN2C(=O)N(c3ccc(SC(F)(F)F)cc3)C(=O)C2(C)C)ccn1 [Example 40]
3. CC1(C)C(=O)N(c2ccc(SC(F)(F)F)cc2)C(=O)N1Cc1ccnc(Nc2cc(Cl)ccc2Cl)c1 [Example 1]
4. CCN(C)C(=O)Nc1cc(CN2C(=O)N(c3ccc(SC(F)(F)F)cc3)C(=O)C2(C)C)ccn1 [Example 34]

Reply:
7.00 to 8.00
< 7.00
7.00 to 8.00
7.00 to 8.00

* * *

target: human cytoplasmic domain of IGF-1R (Homo sapiens, UniProt P08069); construct: The human cytoplasmic domain of IGF-1R was cloned by fusion with glutathione S-transferase (GST); made in house; host or cells: SF21 insect cells (baculovirus, pFastBac-GST); test: Kinase IGF-1R test: inhibition of autophosphorylation of the enzyme (HTRF); assay type: biochemical; details: preincubation 90 minutes with 5 nM enzyme, ATP 120 μM; read-out: Test A 90′ IC50
Sequence (P08069 960-1367 limits assumed): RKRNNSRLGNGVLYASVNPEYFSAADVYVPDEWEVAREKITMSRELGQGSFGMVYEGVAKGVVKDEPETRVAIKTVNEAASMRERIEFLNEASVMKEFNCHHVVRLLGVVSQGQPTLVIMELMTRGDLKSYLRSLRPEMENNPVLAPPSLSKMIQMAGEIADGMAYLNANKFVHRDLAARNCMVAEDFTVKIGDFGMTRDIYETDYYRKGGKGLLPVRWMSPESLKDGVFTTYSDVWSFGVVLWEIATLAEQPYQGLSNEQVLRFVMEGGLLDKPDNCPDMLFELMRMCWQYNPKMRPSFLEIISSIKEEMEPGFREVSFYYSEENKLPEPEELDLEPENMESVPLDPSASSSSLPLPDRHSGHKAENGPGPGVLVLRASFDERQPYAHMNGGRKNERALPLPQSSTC
pIC50: −log10 of the molar value.
READOUT: pIC50

MOLECULE: CCOC(=O)Nc1cc(CN2C(=O)N(c3ccc(SC(F)(F)F)cc3)C(=O)C2(C)C)ccn1
pIC50: 7.00 to 8.00
--
MOLECULE: CC1(C)C(=O)N(c2ccc(SC(F)(F)F)cc2)C(=O)N1Cc1ccnc(Nc2cncnc2)n1
pIC50: 7.00 to 8.00
--
MOLECULE: COC(=O)Nc1cc(CN2C(=O)N(c3ccc(SC(F)(F)F)cc3)C(=O)C2(C)C)ccn1 [Example 40L]
pIC50: > 8.00

// each molecule listed below needs its pIC50
1. CN(C)C(=O)Nc1nccc(CN2C(=O)N(c3ccc(SC(F)(F)F)cc3)C(=O)C2(C)C)n1
2. CN(C)CCCNC(=O)Nc1cc(CN2C(=O)N(c3ccc(SC(F)(F)F)cc3)C(=O)C2(C)C)ccn1 [Example 39]
3. CC1(C)C(=O)N(c2ccc(SC(F)(F)F)cc2)C(=O)N1Cc1ccnc(Nc2cccnc2)n1
4. CC1(C)C(=O)N(c2ccc(SC(F)(F)F)cc2)C(=O)N1Cc1ccnc(Nc2ccc(O)nc2)c1 [Example 40G]

Reply:
1. < 7.00
2. 7.00 to 8.00
3. > 8.00
4. 7.00 to 8.00

* * *

biological target: IGF-1R in MCF7 cells (Homo sapiens); experiment: Autophosphorylation of IGF-1R in MCF7 cells after stimulation with IGF-1 (ELISA); type: cell-based; parameters: endogenous in cells; host or cells: MCF-7 cells; conditions: MCF-7 cells, compound added one hour before stimulation with IGF1; read-out: Test B IC50
Sequence (P08069 31-1367): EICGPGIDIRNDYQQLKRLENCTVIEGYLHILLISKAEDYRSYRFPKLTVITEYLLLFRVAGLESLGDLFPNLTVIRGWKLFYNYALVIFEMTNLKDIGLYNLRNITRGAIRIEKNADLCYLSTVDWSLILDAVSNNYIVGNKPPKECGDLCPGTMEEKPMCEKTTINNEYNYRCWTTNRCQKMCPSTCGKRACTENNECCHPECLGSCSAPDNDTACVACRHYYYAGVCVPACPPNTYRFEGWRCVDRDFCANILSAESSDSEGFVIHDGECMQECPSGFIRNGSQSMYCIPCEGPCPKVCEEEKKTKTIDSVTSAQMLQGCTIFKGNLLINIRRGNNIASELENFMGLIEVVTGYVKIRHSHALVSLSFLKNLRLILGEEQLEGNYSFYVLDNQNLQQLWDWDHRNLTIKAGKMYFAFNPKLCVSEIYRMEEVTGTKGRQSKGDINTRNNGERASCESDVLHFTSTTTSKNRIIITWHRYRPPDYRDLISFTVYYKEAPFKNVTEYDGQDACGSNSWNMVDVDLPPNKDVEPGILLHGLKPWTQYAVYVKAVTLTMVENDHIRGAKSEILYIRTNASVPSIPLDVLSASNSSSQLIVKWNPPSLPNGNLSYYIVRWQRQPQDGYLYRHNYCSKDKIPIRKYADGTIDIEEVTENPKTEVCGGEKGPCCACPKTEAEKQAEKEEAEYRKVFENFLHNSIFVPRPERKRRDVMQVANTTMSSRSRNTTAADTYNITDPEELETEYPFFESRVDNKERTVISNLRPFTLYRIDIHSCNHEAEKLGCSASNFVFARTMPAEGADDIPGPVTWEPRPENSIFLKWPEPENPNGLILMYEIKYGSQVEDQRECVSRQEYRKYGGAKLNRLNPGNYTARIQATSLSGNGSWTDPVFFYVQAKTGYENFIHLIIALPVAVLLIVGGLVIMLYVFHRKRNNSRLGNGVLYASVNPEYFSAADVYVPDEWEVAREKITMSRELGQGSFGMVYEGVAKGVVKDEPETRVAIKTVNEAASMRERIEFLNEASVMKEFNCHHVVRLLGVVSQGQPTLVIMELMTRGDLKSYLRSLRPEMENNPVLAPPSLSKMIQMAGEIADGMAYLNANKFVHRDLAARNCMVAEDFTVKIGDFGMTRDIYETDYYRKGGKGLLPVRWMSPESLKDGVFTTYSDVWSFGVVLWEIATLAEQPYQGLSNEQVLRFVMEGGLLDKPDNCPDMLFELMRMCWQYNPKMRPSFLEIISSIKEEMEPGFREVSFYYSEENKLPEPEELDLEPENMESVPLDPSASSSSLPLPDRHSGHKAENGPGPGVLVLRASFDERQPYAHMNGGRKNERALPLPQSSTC
pIC50: −log10 of the molar value.
READOUT: pIC50

These solved cases illustrate the format of a correct answer.
COMPOUND STRING: CCOC(=O)Nc1cc(CN2C(=O)N(c3ccc(SC(F)(F)F)cc3)C(=O)C2(C)C)ccn1
pIC50: 7.00 to 8.00
//
COMPOUND STRING: CCN(C)C(=O)Nc1cc(CN2C(=O)N(c3ccc(SC(F)(F)F)cc3)C(=O)C2(C)C)ccn1
pIC50: 7.00 to 8.00
//
COMPOUND STRING: CC1(C)C(=O)N(c2ccc(SC(F)(F)F)cc2)C(=O)N1Cc1ccnc(NC(=O)NC2CCC2)c1
pIC50: 7.00 to 8.00

Note: attention shifts to another entry.
Ask: Fill in: pIC50 of C[C@H](CO)Nc1nccc(CN2C(=O)N(c3ccc(S(=O)(=O)C(F)(F)F)cc3)C(=O)C2(C)C)n1 is ___
Reply: < 7.00

* * *

I'd appreciate it if you could supply pIC50 values for the items below.
test system: MEF-IGF1R cells; test: Proliferation/viability of MEF-IGF1R (Thymidine [14C] incorporation); format: cell-based; settings: rhIGF1 100 ng/mL, incubation 72 hours, read-out: Test C IC50
pIC50: −log10 of the molar value.

These solved cases illustrate the format of a correct answer.
COMPOUND STRING: CC1(C)C(=O)N(c2ccc(S(=O)(=O)C(F)(F)F)cc2)C(=O)N1Cc1ccnc(Nc2cncnc2)n1
pIC50: < 7.00
--
COMPOUND STRING: CC1(C)C(=O)N(c2ccc(SC(F)(F)F)cc2)C(=O)N1Cc1ccnc(NC(=O)N2CCCC2)c1
pIC50: 7.00 to 8.00
--
COMPOUND STRING: CC1(C)C(=O)N(c2ccc(SC(F)(F)F)cc2)C(=O)N1Cc1ccnc(NC(=O)NCCCN2CCCC2)c1
pIC50: < 7.00
--
COMPOUND STRING: CC1(C)C(=O)N(c2ccc(SC(F)(F)F)cc2)C(=O)N1Cc1ccnc(NC(=O)NCCN2CCCC2)c1
pIC50: < 7.00
--
COMPOUND STRING: CC1(C)C(=O)N(c2ccc(SC(F)(F)F)cc2)C(=O)N1Cc1ccnc(NC(=O)NC2CCCCC2)c1
pIC50: < 7.00
--
COMPOUND STRING: CN(C)C(=O)Nc1nccc(CN2C(=O)N(c3ccc(SC(F)(F)F)cc3)C(=O)C2(C)C)n1
pIC50: < 7.00

Ask: Fill in: pIC50 of CN1CCN(C(=O)Nc2cc(CN3C(=O)N(c4ccc(SC(F)(F)F)cc4)C(=O)C3(C)C)ccn2)CC1 is ___
Reply: < 7.00

* * *

biological target: IGF-1R in MCF7 cells (Homo sapiens); assay: Autophosphorylation of IGF-1R in MCF7 cells after stimulation with IGF-1 (ELISA); assay type: cell-based; parameters: endogenous in cells; host or cells: MCF-7 cells; settings: MCF-7 cells, compound added one hour before stimulation with IGF1; read-out: Test B IC50
pIC50: −log10 of the molar value.
I'd appreciate it if you could supply pIC50 values for the items below.

COMPOUND: CC1(C)C(=O)N(c2ccc(SC(F)(F)F)cc2)C(=O)N1Cc1ccnc(NC(=O)N2CCCCC2)c1
pIC50: > 8.00
//
COMPOUND: CC1(C)C(=O)N(c2ccc(SC(F)(F)F)cc2)C(=O)N1Cc1ccnc(Nc2cncnc2)c1
pIC50: < 7.00
//
COMPOUND: CC1(C)C(=O)N(c2ccc(SC(F)(F)F)cc2)C(=O)N1Cc1ccnc(NC(=O)NCCCCN2CCCC2)c1
pIC50: 7.00 to 8.00
//
COMPOUND: COC(=O)Nc1cc(CN2C(=O)N(c3ccc(SC(F)(F)F)cc3)C(=O)C2(C)C)ccn1 [Example 40L]
pIC50: 7.00 to 8.00
//
COMPOUND: CC1(C)C(=O)N(c2ccc(SC(F)(F)F)cc2)C(=O)N1Cc1ccnc(Nc2cccnc2)n1
pIC50: > 8.00

// each compound listed below needs its pIC50
1. CC1(C)C(=O)N(c2ccc(S(=O)(=O)C(F)(F)F)cc2)C(=O)N1Cc1ccnc(Nc2cncnc2)n1
2. CC1(C)C(=O)N(c2ccc(SC(F)(F)F)cc2)C(=O)N1Cc1ccnc(NC2CC2)c1 [Example 40D]
3. CC1(C)C(=O)N(c2ccc(SC(F)(F)F)cc2)C(=O)N1Cc1ccnc(NC(=O)N2CCOCC2)c1

Reply:
7.00 to 8.00
7.00 to 8.00
7.00 to 8.00

* * *

Target: human cytoplasmic domain of IGF-1R (Homo sapiens)
Construct: The human cytoplasmic domain of IGF-1R was cloned by fusion with glutathione S-transferase (GST); made in house; host or cells: SF21 insect cells (baculovirus, pFastBac-GST)
Experiment: Kinase IGF-1R test: inhibition of autophosphorylation of the enzyme (HTRF)
Type: biochemical
Details: preincubation 90 minutes with 5 nM enzyme, ATP 120 μM; read-out: Test A 90′ IC50
Description: A) Experimental Protocol for the Kinase IGF-1R Test: The inhibitory activity of the compounds on IGF1R is determined by measuring the inhibition of autophosphorylation of the enzyme using a time-resolved fluorescence test (HTRF). The human cytoplasmic domain of IGF-1R was cloned by fusion with glutathione S-transferase (GST) in the baculovirus expression vector pFastBac-GST. […] The specific long-lasting signal of XL-665 is measured in a GENios Pro TECAN plate counter. […]
I'd appreciate it if you could supply IC50 values for the items below.

These solved cases illustrate the format of a correct answer.
MOLECULE: CC1(C)C(=O)N(c2ccc(SC(F)(F)F)cc2)C(=O)N1Cc1ccnc(NC(=O)N2CCC2)c1
VAL: 10 to 100 nM

MOLECULE: CN(C)C(=O)Nc1nccc(CN2C(=O)N(c3ccc(S(=O)(=O)C(F)(F)F)cc3)C(=O)C2(C)C)n1
VAL: > 100 nM

MOLECULE: CN(C)CCCNC(=O)Nc1cc(CN2C(=O)N(c3ccc(SC(F)(F)F)cc3)C(=O)C2(C)C)ccn1 [Example 38]
VAL: 10 to 100 nM

MOLECULE: CN1CCN(C(=O)Nc2cc(CN3C(=O)N(c4ccc(SC(F)(F)F)cc4)C(=O)C3(C)C)ccn2)CC1
VAL: < 10 nM

MOLECULE: CN(C)CCCCNC(=O)Nc1cc(CN2C(=O)N(c3ccc(SC(F)(F)F)cc3)C(=O)C2(C)C)ccn1
VAL: < 10 nM

Note: attention shifts to another entry.
Ask: Requested read-out IC50, target or system human cytoplasmic domain of IGF-1R (Homo sapiens), entry CC1(C)C(=O)N(c2ccc(SC(F)(F)F)cc2)C(=O)N1Cc1ccnc(Nc2ccc(Cl)nc2)c1 [Example 40F]
Reply: 10 to 100 nM
